- system.tested: Prostaglandin G/H synthase 2 (Homo sapiens)
- Sequence (P35354 whole entry): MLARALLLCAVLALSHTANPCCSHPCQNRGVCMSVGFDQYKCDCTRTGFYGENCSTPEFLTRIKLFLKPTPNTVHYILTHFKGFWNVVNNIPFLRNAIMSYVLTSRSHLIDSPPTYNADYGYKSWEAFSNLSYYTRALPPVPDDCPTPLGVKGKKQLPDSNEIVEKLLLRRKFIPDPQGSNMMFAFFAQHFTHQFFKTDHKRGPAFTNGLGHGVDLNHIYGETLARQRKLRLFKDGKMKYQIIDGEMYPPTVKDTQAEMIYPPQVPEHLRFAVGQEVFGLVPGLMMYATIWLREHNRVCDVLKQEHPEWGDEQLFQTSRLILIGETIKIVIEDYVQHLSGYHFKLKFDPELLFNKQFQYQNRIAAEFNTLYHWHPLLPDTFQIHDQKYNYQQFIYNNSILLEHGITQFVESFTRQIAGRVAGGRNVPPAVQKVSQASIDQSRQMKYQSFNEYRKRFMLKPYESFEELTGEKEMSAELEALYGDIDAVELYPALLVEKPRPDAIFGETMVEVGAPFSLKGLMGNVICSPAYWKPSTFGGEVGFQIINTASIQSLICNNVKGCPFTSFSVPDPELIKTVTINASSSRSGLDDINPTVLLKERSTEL
observed.property: pIC50
Give bare numbers, as −log10 of the molar value.

{"molecule": "COc1ccc(-c2noc(CC(=O)NCCCCCCCCCCC(=O)OC[C@H]3OC(O)[C@H](O)[C@@H](O)[C@H]3O)c2-c2ccc(OC)cc2)cc1 (some centres not stated)", "pIC50": 6.57}

Now turn to the next molecule.
q: What value of pIC50 has been recorded for this entry: `COc1ccc(-c2noc(CC(=O)OC[C@H]3O[C@@H](O)[C@H](O)[C@@H](O)[C@H]3O)c2-c2ccc(OC)cc2)cc1`
a: 5.51

====

- test.method.notes: Apparent permeability across apical to basolateral side in human Caco2 cells at 100 uM after 120 mins by UV-Visible spectroscopic method
- Format: ADME, cell-based
- run.parameters: Caco-2
observed.property: Papp A→B at 2 h, 100 µM (×10⁻⁶ cm/s)
Numbers only, in ×10⁻⁶ cm/s.

{"compound": "COc1ccc(-c2noc(CC(=O)NCCCCC(=O)OC[C@H]3OC(O)[C@H](O)[C@@H](O)[C@H]3O)c2-c2ccc(OC)cc2)cc1 (some centres undefined)", "meas.value": 23.3}
{"compound": "COc1ccc(-c2noc(CC(=O)OC[C@H]3O[C@@H](O)[C@H](O)[C@@H](O)[C@H]3O)c2-c2ccc(OC)cc2)cc1", "meas.value": 38}
{"compound": "COc1ccc(-c2noc(CC(=O)NCCCCCCCCCCC(=O)OC[C@H]3OC(O)[C@H](O)[C@@H](O)[C@H]3O)c2-c2ccc(OC)cc2)cc1 (some centres undefined)", "meas.value": 16.9}

Now turn to the next compound.
q: What value of Papp A→B at 2 h, 100 µM has been recorded for this entry: COc1ccc(-c2noc(CC(=O)O)c2-c2ccc(OC)cc2)cc1 [MOFEZOLAC]
a: 41.4

====

Answer each item with its documented Papp B→A at 2 h, 100 µM.
- system.tested: GLUT1 (Solute carrier family 2, facilitated glucose transporter member 1) (Homo sapiens, UniProt P11166)
- Sequence (P11166 whole entry): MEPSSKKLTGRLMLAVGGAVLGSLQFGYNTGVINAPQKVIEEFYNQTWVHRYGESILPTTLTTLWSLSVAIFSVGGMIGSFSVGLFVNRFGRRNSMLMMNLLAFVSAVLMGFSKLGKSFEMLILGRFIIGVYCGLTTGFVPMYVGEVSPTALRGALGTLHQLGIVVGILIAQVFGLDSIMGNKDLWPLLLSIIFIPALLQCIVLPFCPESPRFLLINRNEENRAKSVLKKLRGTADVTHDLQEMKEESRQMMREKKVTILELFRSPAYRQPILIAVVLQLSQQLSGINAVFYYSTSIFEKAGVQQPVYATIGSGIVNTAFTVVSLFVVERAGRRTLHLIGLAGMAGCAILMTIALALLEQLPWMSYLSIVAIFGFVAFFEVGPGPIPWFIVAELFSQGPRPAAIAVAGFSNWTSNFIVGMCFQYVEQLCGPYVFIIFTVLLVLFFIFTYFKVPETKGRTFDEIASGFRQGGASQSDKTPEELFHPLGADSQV
- test.method.notes: Apparent permeability across basolateral to apical side in human Caco2 cells assessed as GLUT1-mediated drug transport at 100 uM after 120 mins by UV-Visible spectroscopic method
- Assay type: ADME, cell-based
- run.parameters: Caco-2
Numbers only, in ×10⁻⁶ cm/s.

The following compounds have reported results that may help.
{"compound": "COc1ccc(-c2noc(CC(=O)NCCCCC(=O)OC[C@H]3OC(O)[C@H](O)[C@@H](O)[C@H]3O)c2-c2ccc(OC)cc2)cc1 (some centres undefined)", "measure.unit": "×10⁻⁶ cm/s", "Papp B→A at 2 h, 100 µM": 113}
{"compound": "COc1ccc(-c2noc(CC(=O)NCCCCCCCCCCC(=O)OC[C@H]3OC(O)[C@H](O)[C@@H](O)[C@H]3O)c2-c2ccc(OC)cc2)cc1 (some centres undefined)", "measure.unit": "×10⁻⁶ cm/s", "Papp B→A at 2 h, 100 µM": 58.7}

Lab note: each compound below needs its Papp B→A at 2 h, 100 µM filled in.
1. COc1ccc(-c2noc(CC(=O)OC[C@H]3O[C@@H](O)[C@H](O)[C@@H](O)[C@H]3O)c2-c2ccc(OC)cc2)cc1
2. COc1ccc(-c2noc(CC(=O)O)c2-c2ccc(OC)cc2)cc1 [MOFEZOLAC]

a:
1. 87.5
2. 46.1
